Molecular target: IRAK4 (Homo sapiens)
Assay: 2-hour 1 mM ATP IRAK4 Biochemical assay (as above, but with 100 pM IRAK4 and 1 mM ATP)
Conditions: IRAK4 MSD BIOCHEMICAL (1 mM ATP) IC50 (μM), 100 pM IRAK4, 2 hours
result type: IC50 (µM)

CCOc1cc(NC(=O)c2cccc(C(F)F)n2)cn2cc(C3CCOCC3)nc12 :: 0.015
CC(C)Oc1cc2nc(C3CCOCC3)c(F)n2cc1NC(=O)c1cccc(C(F)F)n1 :: 0.001

(a) CCOc1cc2nc(C3CCOCC3)cn2cc1NC(=O)c1ccn(C2CCCC2)n1
(b) CCOc1cc2nc(C(C)C3CCOC3)cn2cc1NC(=O)c1cccc(C(F)(F)F)n1 (single isomer, unassigned) [Example 139]
a or b : whose IC50 is greater? Identify your pick by its label.
a

====

Target: IRAK4 (Homo sapiens, UniProt Q9NWZ3)
Assay: 2-hour 1 mM ATP IRAK4 Biochemical assay (as above, but with 100 pM IRAK4 and 1 mM ATP)
Conditions: IRAK4 MSD BIOCHEMICAL (1 mM ATP) IC50 (μM), 100 pM IRAK4, 2 hours
result type: IC50 (µM)

CCOc1cc2nc(CC3CCOC3)cn2cc1NC(=O)c1ccn(C(C)C)n1 (centres unmarked) :: 0.003

(P) CCOc1cc2nc(CC)cn2cc1NC(=O)c1ccc2c(n1)CCC2
(Q) CC(C)Oc1nc2nc(C34COC(C)(C3)C4)cn2cc1NC(=O)c1cccc2ncnn12
(R) COc1c(NC(=O)c2cccc(C(F)F)n2)cn2cc(C34COC(C)(C3)C4)nc2c1C
Please give the order of these compounds when sorted by IC50, largest value leading. Response field: labels, in requested order.
P, R, Q
(P: 0.019 µM, R: 0.004 µM, Q: 0.001 µM)

====

Molecular target: IRAK4 (Homo sapiens, UniProt Q9NWZ3)
Test: 2-hour 1 mM ATP IRAK4 Biochemical assay (as above, but with 100 pM IRAK4 and 1 mM ATP)
Details: IRAK4 MSD BIOCHEMICAL (1 mM ATP) IC50 (μM), 100 pM IRAK4, 2 hours
result type: IC50 (µM)

Consider the reported IC50 for these molecules:
COc1nc(NC(=O)c2cccc(C(F)F)n2)cn2cc(C3C4CCOCC43)nc12 (centres unmarked) [Example 556, 2,2,2-trifluoroacetate] :: 0.005
COCC(C)(C)c1cn2cc(NC(=O)c3cccc(C(F)F)n3)c(OC(C)C)cc2n1 :: 0.003
CCOc1cc2nc(CC)cn2cc1NC(=O)c1cccc(C(F)(F)F)n1 :: 0.011
CC(C)Oc1nc(NC(=O)c2cnn3cccc(F)c23)cn2cc(C34COC(C)(C3)C4)nc12 :: 0.015
CCOc1nc(NC(=O)c2coc(C)n2)cn2cc(C34COC(C)(C3)C4)nc12 :: 0.031

(I) CCOc1cc2nc(CC3CCOC3)cn2cc1NC(=O)c1ccn(CC(F)(F)F)n1 (centres unmarked)
(II) COc1nc(NC(=O)c2cccc(C3CC3)n2)cn2cc(C3CCOCC3)nc12
Compare the recorded IC50 of I and II ; state which is larger. Write down the label attached to your selection.
I
(I: 0.014 µM, II: 0.008 µM)

====

Target: IRAK4 (Homo sapiens)
Assay: 2-hour 10 μM ATP Biochemical Assay (MesoScale Detection format; IRAK4 phosphorylation of biotin labeled IRAK1 activation loop peptide)
Details: IRAK4 MSD BIOCHEMICAL (10 μM ATP) IC50 (μM), 1 nM IRAK4, 2 hours
result type: IC50 (µM)

O=C(Nc1cn2cc(C3CC3)nc2cc1N1CCN(CC(F)F)CC1)c1cccc(C(F)(F)F)n1 [Example 24] :: 0.002
COc1cc(NC(=O)c2cccc(C(F)F)n2)cn2cc(C34COC(C3)C4)nc12 [Example 544, 2,2,2-trifluoroacetate] :: 0.011
CCOc1cc2nc(C3CCOCC3)cn2cc1NC(=O)c1csc(CC)n1 [Example 202] :: 0.002
CCOc1cc2nc(CC(F)CO)cn2cc1NC(=O)c1cccc(C(F)F)n1 (centres unmarked) [Example 99] :: 0.002

(1) CCOc1cc2nc(C3CN(C(C)=O)C3)cn2cc1NC(=O)c1cccc(C(F)(F)F)n1 [Example 68]
(2) CCOc1cc2nc(CC)cn2cc1NC(=O)c1nc(C)c(C)s1 [Example 48]
Param metric = IC50; output whichever of 1 , 2 has the minimum value. Please identify the chosen entry by its label.
1

====

Target: IRAK4 (Homo sapiens, UniProt Q9NWZ3)
Assay: 2-hour 10 μM ATP Biochemical Assay (MesoScale Detection format; IRAK4 phosphorylation of biotin labeled IRAK1 activation loop peptide)
Conditions: IRAK4 MSD BIOCHEMICAL (10 μM ATP) IC50 (μM), 1 nM IRAK4, 2 hours
result type: IC50 (µM)

CC1CCC(Oc2cc3nc(C4CCOCC4)cn3cc2NC(=O)c2cccc(C(F)F)n2)C1 (stereo not shown) :: 0.001

(I) O=C(Nc1cn2cc(C3CCOCC3)nc2cc1OC1COC1)c1cccc(C(F)F)n1
(II) CCOc1cc2nc(CC3CCOC3)cn2cc1NC(=O)c1cn(C)cn1 (stereo not shown)
(III) CCOc1cc2nc(C3CN(CC(F)F)C3)cn2cc1NC(=O)c1ccn(CC(F)F)n1
Hello, I need these entries ordered by IC50, highest reading first. Thanks! Quick reminder: the answer is the labels in the order asked.
II, III, I
(II: 2.3 µM, III: 0.003 µM, I: 0.001 µM)

====

Biological target: IRAK4 (Homo sapiens, UniProt Q9NWZ3)
Sequence (Q9NWZ3 1-460): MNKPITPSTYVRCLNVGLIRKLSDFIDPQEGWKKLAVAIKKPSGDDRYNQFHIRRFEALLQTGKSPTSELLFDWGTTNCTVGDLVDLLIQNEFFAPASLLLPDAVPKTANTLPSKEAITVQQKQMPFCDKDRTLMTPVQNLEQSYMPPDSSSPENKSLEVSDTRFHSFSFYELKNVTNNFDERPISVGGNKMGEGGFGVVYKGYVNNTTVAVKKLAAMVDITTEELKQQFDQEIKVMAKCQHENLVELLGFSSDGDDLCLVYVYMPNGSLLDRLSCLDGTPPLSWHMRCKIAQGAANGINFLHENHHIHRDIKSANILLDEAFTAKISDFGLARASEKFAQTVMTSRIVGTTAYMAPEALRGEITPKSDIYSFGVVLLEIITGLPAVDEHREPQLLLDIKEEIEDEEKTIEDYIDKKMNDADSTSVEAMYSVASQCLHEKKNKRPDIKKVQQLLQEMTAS
Experiment: 2-hour 1 mM ATP IRAK4 Biochemical assay (as above, but with 100 pM IRAK4 and 1 mM ATP)
Settings: IRAK4 MSD BIOCHEMICAL (1 mM ATP) IC50 (μM), 100 pM IRAK4, 2 hours
result type: IC50 (µM)

CCOc1cc2nc(C(C)C3CCOC3)cn2cc1NC(=O)c1cccc(C(F)(F)F)n1 (mixture of isomers) [Example 137] :: 0.001
CC(C)Oc1nc(NC(=O)c2cccc3ccnn23)cn2cc(C34COC(C)(C3)C4)nc12 :: 0.003
COc1nc(NC(=O)c2cccc(C(F)F)n2)cn2cc(C34CCC(CC3)OC4)nc12 :: 0.051
COC(=O)C(C)(C)c1cn2cc(NC(=O)c3cccc(C(F)F)n3)c(OC(C)C)cc2n1 :: 0.002
COc1cc2nc(C3CC3)cn2cc1NC(=O)c1cccc(C(F)F)n1 :: 0.015

(a) CC(C)Oc1cc2nc(C34CC(F)(C3)C4)cn2cc1NC(=O)c1cccc(C(F)F)n1
(b) CCOc1cc2nc(C3C4COCC43)cn2cc1NC(=O)c1coc(C(F)F)n1 (centres unmarked) [Example 376, 2,2,2-trifluoroacetate]
Consider entries a and b . Which has the numerically lower IC50? // caller expects the label of the chosen entry
a

====

Target: IRAK4 (Homo sapiens)
Experiment: 2-hour 1 mM ATP IRAK4 Biochemical assay (as above, but with 100 pM IRAK4 and 1 mM ATP)
Settings: IRAK4 MSD BIOCHEMICAL (1 mM ATP) IC50 (μM), 100 pM IRAK4, 2 hours
result type: IC50 (µM)

// known answers, use as guide
CC(C)Oc1cc2nc(-c3ccnn3C)cn2cc1NC(=O)c1cccc(C(F)F)n1 [Example 525] :: 0.002
CCOc1cc2nc(CCCOC)cn2cc1NC(=O)c1cccc(C(F)F)n1 [Example 12] :: 0.001
CC(C)Oc1c(NC(=O)c2cccc(OCC(F)F)n2)cn2cc(C34COC(C)(C3)C4)nc2c1F [Example 429, 2,2,2-trifluoroacetate] :: 0.006
CCOc1cc2nc(C3CCOCC3)cn2cc1NC(=O)c1cccc(C#N)n1 [Example 365] :: 0.006
CC1(COc2cc3nc(C4CCOCC4)cn3cc2NC(=O)c2cccc(C(F)F)n2)CCOC1 (centres unmarked) [Example 197] :: 0.004
O=C(Nc1cc(Cl)c2nc(C3CCOCC3)cn2c1)c1cccc(C(F)F)n1 [Example 308] :: 0.043

(1) CC(C)Oc1nc2nc(C34COC(C)(C3)C4)cn2cc1NC(=O)c1csc(C(F)(F)F)n1 [Example 499]
(2) COc1ccccc1C(=O)Nc1cn2cc(C34COC(C)(C3)C4)nc2c(OC(C)C)n1 [Example 477, 2,2,2-trifluoroacetate]
(3) O=C(Nc1cn2cc(C3CCOCC3)nc2c(N2CCCC2)n1)c1cccc(C(F)F)n1 [Example 342]
Ordering: ascending IC50. Thanks in advance for listing the labels in the requested order.
1, 2, 3

(A) CCOc1cc2nc(C3CN(CC(F)F)C3)cn2cc1NC(=O)c1cccc(C(F)F)n1 [Example 78]
(B) COCc1cc2nc(C3CCOCC3)cn2cc1NC(=O)c1cccc(C(F)F)n1 [Example 314]
Parameter check: reported IC50 is higher for which label, A or B ? Identify your pick by its label.
B
